- targetEntity: guinea pig Opioid, Kappa 1 Receptor (OpiateK), OPRK1 (gene 100135587) (UniProt P41144)
- Sequence (P41144 whole entry, looked up): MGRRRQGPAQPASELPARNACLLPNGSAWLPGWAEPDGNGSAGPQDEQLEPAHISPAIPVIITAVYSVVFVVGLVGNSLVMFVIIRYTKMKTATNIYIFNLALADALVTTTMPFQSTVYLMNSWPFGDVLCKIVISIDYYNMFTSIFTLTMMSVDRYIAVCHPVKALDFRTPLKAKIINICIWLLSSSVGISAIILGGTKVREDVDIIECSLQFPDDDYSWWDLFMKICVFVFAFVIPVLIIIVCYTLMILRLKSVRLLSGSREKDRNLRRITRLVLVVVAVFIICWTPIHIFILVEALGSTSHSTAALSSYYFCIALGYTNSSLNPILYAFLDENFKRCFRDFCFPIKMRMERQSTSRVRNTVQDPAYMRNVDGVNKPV
- assayOverview: NVS_GPCR_gOpiateK: NovaScreen (NVS) G Protein-Coupled Receptor Assay for guinea pig Opioid, Kappa 1 Receptor (OpiateK) (AID 2283252);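 note: radioligand displacement from kappa opioid receptor in guinea pig cerebellar membranes; active means reduced radioligand binding relative to DMSO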
Results filed as inconclusive are left out. Calls of active or inactive are those of the source. Rule for the calls: active = hit-call score of the fitted dose curve at least 0.9, where 1 is the maximum; inconclusive = response in the unintended direction; inactive = score below 0.9.
Labels: Yes (active), No (inactive)

# compound, category
records = [
    ("N#CCCC(Br)(C#N)CBr (stereo not given)", "No"),
    ("O=c1oc2ccccc2c(O)c1C(CC(O)c1ccc(-c2ccc(Br)cc2)cc1)c1ccccc1 (stereo not given)", "No"),
    ("O=C1C[C@@H]2OCC=C3CN4CC[C@]56c7ccccc7N1[C@H]5[C@H]2[C@H]3C[C@H]46", "No"),
    ("O=C1C=CC(=O)c2ccccc21", "Yes"),
    ("Nc1c(Oc2ccccc2)cc(O)c2c1C(=O)c1ccccc1C2=O", "No"),
]
